Experimental system: Tryptophan 2,3-dioxygenase (Homo sapiens)
Sequence (P48775 whole entry): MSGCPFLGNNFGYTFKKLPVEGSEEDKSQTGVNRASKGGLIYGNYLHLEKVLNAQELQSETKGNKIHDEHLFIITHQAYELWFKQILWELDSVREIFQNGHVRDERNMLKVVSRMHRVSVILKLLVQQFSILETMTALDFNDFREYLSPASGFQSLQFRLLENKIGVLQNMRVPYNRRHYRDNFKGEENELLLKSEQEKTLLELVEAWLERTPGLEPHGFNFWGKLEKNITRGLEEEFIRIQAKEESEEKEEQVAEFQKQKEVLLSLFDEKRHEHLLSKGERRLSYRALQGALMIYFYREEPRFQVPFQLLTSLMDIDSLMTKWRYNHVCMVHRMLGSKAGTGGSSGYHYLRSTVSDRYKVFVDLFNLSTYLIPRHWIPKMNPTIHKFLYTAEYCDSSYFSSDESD
Method notes: Assay for TDO2 enzymatic activity determination: To measure the TDO2 activity, the procedure described in Dolusic et al. J. Med. Chem.; 2011, 54, […] was adapted: the reaction mixture contained (final concentrations) potassium phosphate buffer (50 mM, pH 7.5), ascorbic acid (0.25 M), methylene blue (0.125 μM), catalase (40 units/mL, from bovine liver, Sigma), and human recombinant TDO2 enzyme (prepared as described in Dolusic et al. J. Med. Chem.; 2011, 54, 5320-5334; 0.9 μg) without or with the compounds of the present invention at the indicated concentrations (total volume 112.5 μL). The reaction was initiated by the addition of 37.5 μL of L-Trp (final concentration 1 mM) at room temperature. The reaction was conducted at room temperature during one hour and stopped by the addition of 30 μL of 30% (w/v) trichloroacetic acid.To convert N-formylkynurenine into kynurenine, the reaction mixture was incubated at 65° C. for 30 min. Then 150 μL of the reaction mixture was mixed with 120 μL of 2.5% (w/v) 4-(dimethylamino)-benzaldehyde in acetic acid and incubated for 5 min at room temperature. Kynurenine concentrations were determined by measuring the absorbance at 480 nm. A standard curve was made with pure kynurenine. The TDO activity was measured as described above using ten serial concentrations of the compounds of the present invention. Data were fitted using the Prism™ software (GraphPad Software, Inc.) using standard parameters.
Assay readout: pIC50
As a rule, pIC50 stands for the negative log10 of the concentration, concentration in M.

[ask] Fill blank: measured pIC50 of the compound C[C@@H](CO)NS(=O)(=O)c1ccc(-c2c[nH]c3cc(F)ccc23)cc1 is ____.
[reply] 6.08
